measurement-description: ATG_DR4_LXR_CIS: Attagene CIS-FACTORIAL HepG2 Assay for human Liver X Receptor (LXR), DR4 submotif (AID 2282929)
measurement-conditions: HepG2 Attagene DR4 cis-reporter, mRNA transcription; actives raise or lower the signal
Calls of active or inactive are those of the source. How the source made its calls: active means hit-call score of the fitted dose curve at least 0.9, where 1 is the maximum; inactive means score below 0.9.
// allowed return values: t for active, f for inactive

Request: Please state the recorded outcome for this molecule: Nc1ccn([C@@H]2O[C@H](CO)[C@@H](O)[C@@H]2O)c(=O)n1
Result: f

Request: Please state the recorded outcome for this molecule: O=S1(=O)CCCO1
Result: f

Request: Please state the recorded outcome for this molecule: FC(F)(F)C(F)(F)C(F)(F)C(F)(F)C(F)(F)C(F)(F)I
Result: f

Request: Please state the recorded outcome for this molecule: O=C(Cl)C(F)(F)C(F)(F)C(F)(F)C(=O)Cl
Result: f

Further cases:
Request: Please state the recorded outcome for this molecule: NC(=O)N(O)[C@@H]1COc2cc(OCc3ccccc3)ccc21
Result: f

Request: Please state the recorded outcome for this molecule: O=C1CN(N=Cc2ccc([N+](=O)[O-])o2)C(=O)N1
Result: f

Request: Please state the recorded outcome for this molecule: CCCCCCCC1CCC(=O)O1 (stereo not drawn)
Result: f

Request: Please state the recorded outcome for this molecule: Cc1ncc([C@@H](CCCCCCc2ccc3c(n2)NCCC3)CC(=O)O)cn1
Result: f

Request: Please state the recorded outcome for this molecule: CCc1cccc(CC)c1N
Result: f

Request: Please state the recorded outcome for this molecule: NNC(=O)c1ccncc1
Result: f

Request: Please state the recorded outcome for this molecule: c1ccc2c(c1)-c1cccc3c1c-2cc1ccccc13
Result: f

Request: Please state the recorded outcome for this molecule: CCOC(N)=O
Result: f

Request: Please state the recorded outcome for this molecule: C=CCc1cc(S(=O)(=O)c2ccc(O)c(CC=C)c2)ccc1O
Result: t

---

measurement-description: ATG_FoxO_CIS: Attagene CIS-FACTORIAL HepG2 Assay for human Forkhead box O (FoxO) (AID 2282943)
measurement-conditions: HepG2 Attagene cis-reporter, FoxO element, mRNA; actives raise or lower the signal
Activity calls are given as the source filed them. The calls were made as follows: active = hit-call score of the fitted dose curve at least 0.9, where 1 is the maximum; inactive = score below 0.9.
readout-label: outcome

Worked examples, 5 compounds total:
Request: Requested field: outcome. Item: Cn1cc[nH]c1=S
Result: inactive

Request: Requested field: outcome. Item: Cc1nc(-c2ccccn2)ncc1C(=O)Nn1cc(C)c2cc(F)ccc21
Result: inactive

Request: Requested field: outcome. Item: OC(O)(C(F)C(O)(O)C(F)(F)F)C(F)(F)F
Result: inactive

Request: Requested field: outcome. Item: CCCOc1ccc(S(=O)(=O)N2CCN(CC)CC2)cc1-c1nc2c(CC)n(Cc3ccccn3)nc2c(=O)[nH]1
Result: inactive

Request: Requested field: outcome. Item: CCOC(N)=O
Result: inactive

Further cases:
Request: Requested field: outcome. Item: CC(C)C(=O)Nc1ccc([N+](=O)[O-])c(C(F)(F)F)c1
Result: inactive

Request: Requested field: outcome. Item: COS(C)(=O)=O
Result: inactive

Request: Requested field: outcome. Item: OCc1c[nH]c2ccccc12
Result: inactive

---

Read-out: Interleukin-1 alpha (IL1a), IL1A (gene 3552)
measurement-description: BSK_BE3C_IL1a: BioMAP Diversity Plus: BE3C Assay for Interleukin-1 alpha (IL1a) Biomarker Activity (AID 2283016)
measurement-conditions: primary human bronchial epithelial cells; actives raise or lower the signal
Activity calls are given as the source filed them. How the source made its calls: active means hit-call score of the fitted dose curve at least 0.9, where 1 is the maximum; inactive means score below 0.9.
// allowed return values: 1 (active), 0 (inactive)

Request: Please state the recorded outcome for this compound: O=S1(=O)CCCO1
Result: 0

Request: Please state the recorded outcome for this compound: OC[C@H]1O[C@@](CO)(O[C@H]2O[C@H](CO)[C@@H](O)[C@H](O)[C@H]2O)[C@@H](O)[C@@H]1O
Result: 0

Request: Please state the recorded outcome for this compound: Cn1c(=O)c2[nH]cnc2n(C)c1=O
Result: 0

Further cases:
Request: Please state the recorded outcome for this compound: OC(CCl)CCl
Result: 0

Request: Please state the recorded outcome for this compound: Cc1nccn1-c1ccc(Sc2cccc(C3(C(N)=O)CCOCC3)c2)cc1
Result: 1

Request: Please state the recorded outcome for this compound: CCCOc1ccc(S(=O)(=O)N2CCN(CC)CC2)cc1-c1nc2c(CC)n(Cc3ccccn3)nc2c(=O)[nH]1
Result: 0

Request: Please state the recorded outcome for this compound: NC(=O)N(O)[C@@H]1COc2cc(OCc3ccccc3)ccc21
Result: 0

Request: Please state the recorded outcome for this compound: CC1(C)C(=O)N(Cl)C(=O)N1Cl
Result: 0

Request: Please state the recorded outcome for this compound: C=CN1CCCC1=O
Result: 0

Request: Please state the recorded outcome for this compound: CCOC(N)=O
Result: 0

Request: Please state the recorded outcome for this compound: NC(=O)NN=Cc1ccc([N+](=O)[O-])o1
Result: 0

Request: Please state the recorded outcome for this compound: CCCCCCCCN(C)C
Result: 0

Request: Please state the recorded outcome for this compound: CCCC(CCC)C(=O)O
Result: 0
